Catalogue of IC50 readings, one per entry.
tested on: NB17; test: cells; assay type: functional, cell-based, Homo sapiens; conditions: Homo sapiens, NB17;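 further: growth inhibition of NB17 cells, read out with a cell viability assay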
Description: SANGER: Inhibition of human NB17 cell growth in a cell viability assay.

>  <Compound>
NC(=O)c1ccc(N(C(N)=O)c2c(F)cccc2F)nc1-c1ccc(F)cc1F [VX-702]

>  <IC50>
> 2 µM

$$$$
>  <Compound>
Cc1cc(N2CCOCC2)cc2[nH]c(-c3c(NC[C@@H](O)c4cccc(Cl)c4)cc[nH]c3=O)nc12

>  <IC50>
> 5.12 µM

$$$$
>  <Compound>
O=C(NCCCNc1nc(Nc2cccc(NC(=O)N3CCCC3)c2)ncc1I)c1cccs1 [BX-795]

>  <IC50>
> 5 µM

$$$$
>  <Compound>
Cc1ccc(-n2nc(C(C)(C)C)cc2NC(=O)Nc2ccc(OCCN3CCOCC3)c3ccccc23)cc1 [DORAMAPIMOD]

>  <IC50>
> 10 µM

$$$$
>  <Compound>
CC1=C(/C=C/C(C)=C/C=C/C(C)=C/C(=O)O)C(C)(C)CCC1 [TRETINOIN]

>  <IC50>
> 10 µM

$$$$
>  <Compound>
CC1(C)CCC(c2ccc(Cl)cc2)=C(CN2CCN(c3ccc(C(=O)NS(=O)(=O)c4ccc(N[C@H](CCN5CCOCC5)CSc5ccccc5)c(S(=O)(=O)C(F)(F)F)c4)cc3)CC2)C1 [NAVITOCLAX]

>  <IC50>
0.0712 µM

$$$$

###

system: NCI-H1838; experiment: cells; assay type: functional, cell-based, Homo sapiens; conditions: Homo sapiens, NCI-H1838;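 further: growth inhibition of NCI-H1838 cells, determined with a cell viability readout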
Description: SANGER: Inhibition of human NCI-H1838 cell growth in a cell viability assay.
Catalogue of IC50 readings, one per entry.

>  <Compound>
CCCCCCCCCCCC1=C(O)C(=O)C=C(O)C1=O [EMBELIN]

>  <IC50>
> 32 µM

$$$$
>  <Compound>
Cc1cc(N2CCOCC2)cc2[nH]c(-c3c(NC[C@@H](O)c4cccc(Cl)c4)cc[nH]c3=O)nc12

>  <IC50>
> 5.12 µM

$$$$
>  <Compound>
CC1(C)CCC(c2ccc(Cl)cc2)=C(CN2CCN(c3ccc(C(=O)NS(=O)(=O)c4ccc(N[C@H](CCN5CCOCC5)CSc5ccccc5)c(S(=O)(=O)C(F)(F)F)c4)cc3)CC2)C1 [NAVITOCLAX]

>  <IC50>
> 2 µM

$$$$
>  <Compound>
C=CC(=O)N1CCCC(Nc2nc(Nc3ccc(N(C)C(=O)CC)cc3)nc3[nH]cnc23)C1 (centres undefined)

>  <IC50>
> 10.2 µM

$$$$

###

system: HMV-2 cell line; experiment: cells; type: functional, cell-based; settings: Homo sapiens
Description: SANGER: Inhibition of human HMV-II cell growth in a cell viability assay.
pIC50: −log10 of the molar value.

>  <Compound>
NC(=O)c1ccc(N(C(N)=O)c2c(F)cccc2F)nc1-c1ccc(F)cc1F

>  <Qualifier Symbol>
=

>  <pIC50>
5.75

$$$$
>  <Compound>
O=C(NCCCNc1nc(Nc2cccc(NC(=O)N3CCCC3)c2)ncc1I)c1cccs1

>  <Qualifier Symbol>
<

>  <pIC50>
5.30

$$$$

###

system: TALL-1; test: cells; assay type: functional, cell-based, Homo sapiens; details: tall-1;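 further: growth inhibition of cultured human TALL-1 cells, read out by a cell viability assay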
Description: SANGER: Inhibition of human TALL-1 cell growth in a cell viability assay.
Where a SMILES comes first, the peptide text is derived from it. The star is where a group is joined. Cbz = O=C(OCc1ccccc1)*

>  <Compound>
CC(C)C[C@@H](C=O)NC(=O)[C@H](CC(C)C)NC(=O)[C@H](CC(C)C)NC(=O)OCc1ccccc1 [MG-132] (Cbz-Leu-Leu-Leu-aldehyde)

>  <IC50>
> 1000 nM

$$$$

###

tested on: SCC-3; assay: cells; format: functional, cell-based, Homo sapiens; settings: Homo sapiens, SCC-3;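 further: cell viability assay measuring inhibition of SCC-3 cell growth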
Description: SANGER: Inhibition of human SCC-3 cell growth in a cell viability assay.
Catalogue of IC50 readings, one per entry.
Test Readout: IC50

>  <Molecule>
COc1ccc(-c2cc3nccn3c(Nc3ncccc3C(N)=O)n2)cc1OC

>  <Test Readout>
IC50

>  <Observed Measurement>
7500 nM

$$$$
>  <Molecule>
Cc1ccc(C(=O)Nc2ccc(CN3CCN(C)CC3)c(C(F)(F)F)c2)cc1C#Cc1cnc2cccnn12 [PONATINIB]

>  <Test Readout>
IC50

>  <Observed Measurement>
> 512 nM

$$$$
>  <Molecule>
CCCCCCCCCCCC1=C(O)C(=O)C=C(O)C1=O [EMBELIN]

>  <Test Readout>
IC50

>  <Observed Measurement>
> 32000 nM

$$$$
>  <Molecule>
COc1cc(N2CCC(N3CCN(C)CC3)CC2)ccc1Nc1ncc(Cl)c(Nc2ccccc2S(=O)(=O)C(C)C)n1 [TAE-684]

>  <Test Readout>
IC50

>  <Observed Measurement>
< 7.81 nM

$$$$
>  <Molecule>
C/C(=C\c1csc(C)n1)[C@@H]1C[C@@H]2O[C@]2(C)CCC[C@H](C)[C@H](O)[C@@H](C)C(=O)C(C)(C)[C@@H](O)CC(=O)O1 [PATUPILONE]

>  <Test Readout>
IC50

>  <Observed Measurement>
> 32 nM

$$$$
>  <Molecule>
Nc1ccccc1NC(=O)c1ccc(CNC(=O)OCc2cccnc2)cc1 [ENTINOSTAT]

>  <Test Readout>
IC50

>  <Observed Measurement>
61 nM

$$$$

###

test system: SK-MES-1; assay: cells; type: functional, cell-based; details: Homo sapiens
Description: SANGER: Inhibition of human SK-MES-1 cell growth in a cell viability assay.
pIC50: −log10 of the molar value.
Catalogue of pIC50 readings, one per entry.
Test Readout: pIC50

>  <Compound>
O=C(NCCCNc1nc(Nc2cccc(NC(=O)N3CCCC3)c2)ncc1I)c1cccs1 [BX-795]

>  <Test Readout>
pIC50

>  <Qualifier Symbol>
=

>  <Observed Measurement>
5.53

$$$$
>  <Compound>
CCCCCCCCCCCC1=C(O)C(=O)C=C(O)C1=O [EMBELIN]

>  <Test Readout>
pIC50

>  <Qualifier Symbol>
=

>  <Observed Measurement>
5.30

$$$$
>  <Compound>
CC1(C)CCC(c2ccc(Cl)cc2)=C(CN2CCN(c3ccc(C(=O)NS(=O)(=O)c4ccc(N[C@H](CCN5CCOCC5)CSc5ccccc5)c(S(=O)(=O)C(F)(F)F)c4)cc3)CC2)C1 [NAVITOCLAX]

>  <Test Readout>
pIC50

>  <Qualifier Symbol>
<

>  <Observed Measurement>
5.70

$$$$
>  <Compound>
CN(C)CCOc1ccc(-c2nc(-c3ccncc3)c(-c3ccc4c(c3)CC/C4=N\O)[nH]2)cc1 [SB590885]

>  <Test Readout>
pIC50

>  <Qualifier Symbol>
<

>  <Observed Measurement>
5.30

$$$$
>  <Compound>
OC[C@H](Cc1ccccc1)Nc1nc(Oc2ccc3c(c2)CCC3)nc2c1ncn2Cc1ccc(-c2ccccc2)cc1

>  <Test Readout>
pIC50

>  <Qualifier Symbol>
=

>  <Observed Measurement>
5.07

$$$$

###

Catalogue of pIC50 readings, one per entry.
tested on: LS-1034; assay: cells; type: functional, cell-based, Homo sapiens; settings: Homo sapiens, LS-1034
Description: SANGER: Inhibition of human LS-1034 cell growth in a cell viability assay.
pIC50: −log10 of the molar value.

>  <Compound>
CC1(C)CCC(c2ccc(Cl)cc2)=C(CN2CCN(c3ccc(C(=O)NS(=O)(=O)c4ccc(N[C@H](CCN5CCOCC5)CSc5ccccc5)c(S(=O)(=O)C(F)(F)F)c4)cc3)CC2)C1

>  <pIC50>
< 5.70

$$$$
>  <Compound>
O=S(=O)(O)c1ccc2cc(/N=N/c3cc(S(=O)(=O)O)c4cccnc4c3O)ccc2c1

>  <pIC50>
< 4.80

$$$$
>  <Compound>
NC1(c2ccc(-c3nc4ccn5c(=O)[nH]nc5c4cc3-c3ccccc3)cc2)CCC1

>  <pIC50>
< 5.40

$$$$
>  <Compound>
COc1ccc(-c2cc3nccn3c(Nc3ncccc3C(N)=O)n2)cc1OC

>  <pIC50>
< 5.10

$$$$

###

tested on: RH-18; assay: cells; assay type: functional, cell-based; conditions: Homo sapiens, Rh18
Description: SANGER: Inhibition of human RH-18 cell growth in a cell viability assay.
Catalogue of IC50 readings, one per entry.

>  <Compound>
CS(=O)(=O)N1CCN(Cc2cc3nc(-c4cccc5[nH]ncc45)nc(N4CCOCC4)c3s2)CC1

>  <Target>
RH-18

>  <IC50>
> 4 µM

$$$$
>  <Compound>
NC1(c2ccc(-c3nc4ccn5c(=O)[nH]nc5c4cc3-c3ccccc3)cc2)CCC1

>  <Target>
RH-18

>  <IC50>
> 4 µM

$$$$
>  <Compound>
NC(=O)c1ccc(N(C(N)=O)c2c(F)cccc2F)nc1-c1ccc(F)cc1F

>  <Target>
RH-18

>  <IC50>
> 2 µM

$$$$
>  <Compound>
CC1(C)CCC(c2ccc(Cl)cc2)=C(CN2CCN(c3ccc(C(=O)NS(=O)(=O)c4ccc(N[C@H](CCN5CCOCC5)CSc5ccccc5)c(S(=O)(=O)C(F)(F)F)c4)cc3)CC2)C1

>  <Target>
RH-18

>  <IC50>
0.0605 µM

$$$$
>  <Compound>
Cc1ccc(-n2nc(C(C)(C)C)cc2NC(=O)Nc2ccc(OCCN3CCOCC3)c3ccccc23)cc1

>  <Target>
RH-18

>  <IC50>
> 10 µM

$$$$
>  <Compound>
NC(=O)Nc1cc(-c2cccc(F)c2)sc1C(=O)N[C@H]1CCCNC1

>  <Target>
RH-18

>  <IC50>
> 2 µM

$$$$
